# Tested on: A673/TR/shEF
# MEASUREMENT NOTES: cell viability (LOESS-normalised, relative to median of negative controls) (log2 ratio); higher = more viable cells (less compound effect), active = hit call of the paper (over 3 MAD below the median)
# PARTICULARS: 2.8 µM; library screen: screen3; EWS-FLI1 expression: low (doxycycline-induced shRNA knockdown); treatment time: 72 h
About 300 (9.4%) of roughly 3,200 compounds showed activity. The list comes from a sample in which actives are over-represented; it also holds close analogues and randomly drawn compounds.
Possible outcomes: 1 (yes) = active, 0 (no) = inactive

>  <GIVEN SMILES>
Cc1ccc(NC(=O)c2ccc(CN3CCN(C)CC3)cc2)cc1Nc1nccc(-c2cccnc2)n1

>  <CLASS LABEL>
0 (no)

$$$$
>  <GIVEN SMILES>
c1cc(CN2CCCNCCNCCCNCC2)ccc1CN1CCCNCCNCCCNCC1

>  <CLASS LABEL>
0 (no)

$$$$
>  <GIVEN SMILES>
Cc1cnc(C(=O)NCCc2ccc(S(=O)(=O)NC(=O)NC3CCCCC3)cc2)cn1

>  <CLASS LABEL>
0 (no)

$$$$
>  <GIVEN SMILES>
CCN(CCO)CCCOc1ccc2c(Nc3cc(CC(=O)Nc4cccc(F)c4)[nH]n3)ncnc2c1

>  <CLASS LABEL>
1 (yes)

$$$$
>  <GIVEN SMILES>
Cc1cn(-c2cc(NC(=O)c3ccc(C)c(Nc4nccc(-c5cccnc5)n4)c3)cc(C(F)(F)F)c2)cn1

>  <CLASS LABEL>
0 (no)

$$$$
>  <GIVEN SMILES>
COc1c(C)c2c(c(O)c1C/C=C(\C)CCC(=O)O)C(=O)OC2

>  <CLASS LABEL>
0 (no)

$$$$
>  <GIVEN SMILES>
Nc1ccccc1NC(=O)c1ccc(CNc2nccc(-c3cccnc3)n2)cc1

>  <CLASS LABEL>
0 (no)

$$$$
>  <GIVEN SMILES>
CC(C)C[C@H](NC(=O)[C@H](Cc1ccccc1)NC(=O)c1cnccn1)B(O)O

>  <CLASS LABEL>
1 (yes)

$$$$
>  <GIVEN SMILES>
Cc1ccncc1Nc1ncccc1C(=O)Nc1ccc(C2(C#N)CCCC2)cc1

>  <CLASS LABEL>
0 (no)

$$$$
>  <GIVEN SMILES>
COc1ccc(Cl)cc1C(=O)NCCc1ccc(S(=O)(=O)NC(=O)NC2CCCCC2)cc1

>  <CLASS LABEL>
0 (no)

$$$$

----------
# Tested on: A673/TR/shEF
# MEASUREMENT NOTES: cell viability (LOESS-normalised, relative to median of negative controls) (log2 ratio); higher = more viable cells (less compound effect), active = hit call of the paper (over 3 MAD below the median)
# PARTICULARS: 8.3 µM; library screen: screen3; EWS-FLI1 expression: high (no doxycycline); treatment time: 72 h
Out of some 3,200 compounds screened, about 300 (9.4%) showed activity. The sample as a whole holds a higher share of actives than the screen did.
Possible outcomes: TRUE for active, FALSE for inactive

>  <MOLECULE>
COc1cc(Nc2c(C#N)cnc3cc(OCCCN4CCN(C)CC4)c(OC)cc23)c(Cl)cc1Cl

>  <CLASS LABEL>
FALSE

$$$$
>  <MOLECULE>
CCOc1cc2ncc(C#N)c(Nc3ccc(F)c(Cl)c3)c2cc1NC(=O)/C=C/CN(C)C

>  <CLASS LABEL>
FALSE

$$$$
>  <MOLECULE>
Cc1nc(Nc2ncc(C(=O)Nc3c(C)cccc3Cl)s2)cc(N2CCN(CCO)CC2)n1

>  <CLASS LABEL>
TRUE

$$$$
>  <MOLECULE>
CCOc1cc2ncc(C#N)c(Nc3ccc(OCc4ccccn4)c(Cl)c3)c2cc1NC(=O)/C=C/CN(C)C

>  <CLASS LABEL>
TRUE

$$$$
>  <MOLECULE>
O=C(c1cc(Cc2n[nH]c(=O)c3ccccc23)ccc1F)N1CCN(C(=O)C2CC2)CC1

>  <CLASS LABEL>
FALSE

$$$$
>  <MOLECULE>
C#Cc1cccc(Nc2ncnc3cc(OC)c(OCCCCCCC(=O)NO)cc23)c1

>  <CLASS LABEL>
TRUE

$$$$
>  <MOLECULE>
COCC(=O)NC/C=C/c1ccc2ncnc(Nc3ccc(Oc4ccc(C)nc4)c(C)c3)c2c1

>  <CLASS LABEL>
FALSE

$$$$
>  <MOLECULE>
CN1CCCC(n2nc(Cc3ccc(Cl)cc3)c3ccccc3c2=O)CC1 (centres undefined)

>  <CLASS LABEL>
FALSE

$$$$
>  <MOLECULE>
O=c1cc(-c2cccc3c2Sc2ccccc2S3)oc(N2CCOCC2)c1

>  <CLASS LABEL>
FALSE

$$$$
